# Test system: Inhibin beta A chain (activin A)
# procedure.details: INHBA (activin A) binders on microarrays, primary screen, biochemical, small-molecule microarray, 635 nm fluorescence scan (AID 1107);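 further: mouse activin A protein probed at 4.33 µg/mL on printed slides; score merges bound-protein fluorescence near 667 nm with spot signal-to-noise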
# measurement.setup: small-molecule microarray binding, higher = more signal
Categorized via composite z-score: 1: < 0.3; 2: ≥ 0.3 and < 0.9; 3: ≥ 0.9

Consider the following illustrative entries.
>  <molecule>
O=C1OCC=C[C@H]2OC34C=CCN(c5ccc6ccccc6c5)C(=O)[C@H]3N(CCCCCO)C(=O)[C@@H]4[C@@H]12 (stereo partly specified)

>  <class.assignment>
1

$$$$
>  <molecule>
Cc1c(NC(=O)/C(C#N)=C/c2ccccc2Cl)c(=O)n(-c2ccccc2)n1C

>  <class.assignment>
2

$$$$
>  <molecule>
NCCCCCNC(=O)[C@@H]1C[C@@H]2C(=O)N3CCC[C@H]3C(=O)N2[C@@H]1c1ccc(O)cc1

>  <class.assignment>
3

$$$$
>  <molecule>
CCOC(=O)C1=CCN(S(=O)(=O)c2ccc(C)cc2)C1c1ccccc1 (stereo unspecified)

>  <class.assignment>
2

$$$$

Where would `COC(=O)[C@@]1(Cc2ccccc2CN=[N+]=[N-])N=C(c2ccc(OCCCO)cc2)O[C@H]1c1ccccc1` land among the classes by reported composite z-score? 3

Form field 'band' for `COC(=O)[C@@]1(Cc2ccccc2)[C@H]2c3cc(C(=O)N(C)C)n(CCn4cc([N+](=O)[O-])nc4C)c3C[C@H]2CN1C(=O)c1ccccc1` 2

Which bin, given its composite z-score, does `COCCCNC(=O)[C@@]1(c2ccc([N+](=O)[O-])cc2)CC(=O)N(CC23CC4CC(CC(C4)C2)C3)[C@@H]1c1ccc(CO)cc1I` occupy? 1

Which band does `CCOC(=O)C[C@H]1[C@H](OC(=O)c2ccc(-c3ccccc3)cc2)[C@@H](NC(=O)Cc2ccc(OC)cc2)c2cc(OCCCO)ccc2N1C(=O)Cc1ccc(OC)cc1` fall in? 2

Record `COc1ccc([Si](C)(C)[C@H]2[C@H](CCO)O[C@@]3(C(=O)N(Cc4ccccc4)c4ccc(N5CCOC5=O)cc43)[C@@H]2C)cc1` — which class? 1

Hi there! Could you help me figure out the category for `COc1ccc([Si](C)(C)[C@@H]2[C@@H](CC(=O)N3Cc4ccccc4C[C@H]3CO)O[C@]3(C(=O)N(c4ccccc4)c4ccccc43)[C@H]2C)cc1` please? 2

Into which category would you place `CCCCC(=C=CC[C@H](O)c1ccc(OCCO)cc1)C[C@H](O)COCc1ccccc1` ? 3

Sort into band: `O=C1[C@@]23C=C(Br)[C@H](C[C@@H]2COC3)[C@@]12CO2` 1
